system: HER2 positive (HER2+) breast tumor lines; assay: Cell growth inhibition assay, text summary over HER2+ breast lines; assay type: cell-based; settings: Homo sapiens; the HER2+ breast cancer lines listed in Table 1; read-out: IC50 as a single agent
Endpoint: IC50

Q. Entry "CC(=O)Nc1cccc(-n2c(=O)n(C3CC3)c(=O)c3c(Nc4ccc(I)cc4F)n(C)c(=O)c(C)c32)c1" has what IC50?
A. > 1000 nM

====

system: BT474; assay: Cell growth inhibition assay, BT474 (breast HER2+); assay type: cell-based; details: Homo sapiens, BT-474, 72 h, 3 days, read-out: Single agent IC50 (μM), mean ± STD
Endpoint: IC50

Q. Entry "CC(=O)Nc1cccc(-n2c(=O)n(C3CC3)c(=O)c3c(Nc4ccc(I)cc4F)n(C)c(=O)c(C)c32)c1" has what IC50?
A. > 1 µM

====

system: LS174T; assay: Cell growth inhibition assay, LS174T (colorectal); assay type: cell-based; details: Homo sapiens, 72 h, 3 days, read-out: Single agent IC50 (μM), mean ± STD
Please go through the items and note down their IC50.
Your answer is read as µM, so omit the unit and give the number.

Q. Entry "CC(=O)Nc1cccc(-n2c(=O)n(C3CC3)c(=O)c3c(Nc4ccc(I)cc4F)n(C)c(=O)c(C)c32)c1" has what IC50?
A. 0.099

Q. Entry "CS(=O)(=O)CCNCc1ccc(-c2ccc3ncnc(Nc4ccc(OCc5cccc(F)c5)c(Cl)c4)c3c2)o1" has what IC50?
A. 7.18

====

Please go through the items and note down their IC50.
tested on: five colorectal cancer cell lines; test: Cell growth inhibition assay, colorectal lines; assay type: cell-based; conditions: Homo sapiens; span over the five colorectal cancer cell lines of Table 1; read-out: IC50 values, single agent

Q. Entry "CC(=O)Nc1cccc(-n2c(=O)n(C3CC3)c(=O)c3c(Nc4ccc(I)cc4F)n(C)c(=O)c(C)c32)c1" has what IC50?
A. 0.003 to 0.099 µM

Q. Entry "CS(=O)(=O)CCNCc1ccc(-c2ccc3ncnc(Nc4ccc(OCc5cccc(F)c5)c(Cl)c4)c3c2)o1" has what IC50?
A. 0.149 to 7.18 µM

====

Please go through the items and note down their IC50.
test system: KPL4; assay: Cell growth inhibition assay, KPL4 (breast HER2+); assay type: cell-based; details: Homo sapiens, KPL4, 72 h, 3 days, read-out: Single agent IC50 (μM), mean ± STD

Q. Entry "CC(=O)Nc1cccc(-n2c(=O)n(C3CC3)c(=O)c3c(Nc4ccc(I)cc4F)n(C)c(=O)c(C)c32)c1" has what IC50?
A. > 1 µM

Q. Entry "CS(=O)(=O)CCNCc1ccc(-c2ccc3ncnc(Nc4ccc(OCc5cccc(F)c5)c(Cl)c4)c3c2)o1" has what IC50?
A. < 1 µM
